Source: the supplement of paper PMC9233669

Each entry below carries its recorded self-aminoacylation.
- Tested on: biotinyl-Leu-oxazolone
- method: self-aminoacylation, catalytic enhancement (BLO) (fold over background); higher = more active; k-Seq, kA / k0A0; sequences stand for … in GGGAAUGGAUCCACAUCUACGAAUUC…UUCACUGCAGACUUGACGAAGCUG
Fewer inactive variants are shown than the library holds.

{"orderedResidues": "CUUCAUCUAGGUCAUCGGGUG [Fam2.2 aminoacylation ribozyme variant]", "self-aminoacylation": 7.99}
{"orderedResidues": "AUUCAACUAGGUCACCGGGUG [Fam2.2 aminoacylation ribozyme variant]", "self-aminoacylation": 6.53}
{"orderedResidues": "AUUACCCGGGUCCUCGAGUGA [Fam2.1 aminoacylation ribozyme variant]", "self-aminoacylation": 7.78}
{"orderedResidues": "AUUCACCUUGGUCAUAGGGUG [Fam2.2 aminoacylation ribozyme variant]", "self-aminoacylation": 1.59}
